# METHOD SUMMARY: Cytotoxicity MTT assay
# Format: cell-based, Human
# RUN CONDITIONS: human, HelaM cells, read-out: HELAM (222.125) CC50
# Procedure: Cytotoxicity of the compounds was evaluated using the MTT assay. […] Cell viability was determined by measuring the absorbance of the reduced formazan, giving a purple color, at 540 nm and 690 nm. The absorbance measured at 690 nm was automatically subtracted from the absorbance at 540 nm, to eliminate the effects of non-specific absorption. The percent cytotoxicity achieved by the compounds was calculated according to standard methods. […]
ENDPOINT LABEL: CC50 at 72 h (µg/mL)
Entry rule: numbers only, all in µg/mL.

The cases that follow already have their CC50 at 72 h on record.
{"columns": ["COMPOUND", "ENDPOINT LABEL", "UNITS TEXT", "READING"],
 "data": [
  ["O=C(Nc1ccc(/C=C/C(=O)N2CCC=C(c3ccccc3)CC2)cn1)c1ccncc1 [compound 13]", "CC50 at 72 h", "µg/mL", 4.29],
  ["CS(=O)(=O)N1CC(=O)Nc2ncc(/C=C/C(=O)N3CCC=C(c4ccccc4)CC3)cc2C1 [compound 37]", "CC50 at 72 h", "µg/mL", 2.04],
  ["O=CNc1ccc(/C=C/C(=O)N2CCC=C(c3ccccc3)CC2)cn1 [compound 7]", "CC50 at 72 h", "µg/mL", 7.18],
  ["Cn1cnc(C(=O)Nc2ccc(/C=C/C(=O)N3CCC=C(c4ccccc4)CC3)cn2)c1 [compound 17]", "CC50 at 72 h", "µg/mL", 13.9],
  ["CC(=O)N1CCN2Cc3cc(/C=C/C(=O)N4CCC=C(c5ccccc5)CC4)cnc3NC(=O)C2C1 (stereo not drawn) [compound 47]", "CC50 at 72 h", "µg/mL", 17.6],
  ["COc1ccc(F)cc1C1=CCCN(C(=O)/C=C/c2ccc(NC(=O)c3cccnc3)nc2)CC1 [compound 3]", "CC50 at 72 h", "µg/mL", 1.13],
  ["O=C(Nc1ccc(/C=C/C(=O)N2CCC=C(c3ccccc3)CC2)cn1)C1CCCC1 [compound 18]", "CC50 at 72 h", "µg/mL", 2.62],
  ["O=C(Nc1ccc(/C=C/C(=O)N2CCC=C(c3ccccc3)CC2)cn1)C1CCCCC1 [compound 29]", "CC50 at 72 h", "µg/mL", 3.15],
  ["COc1ccc(F)cc1C1=CCCN(C(=O)/C=C/c2cnc3c(c2)COC(=O)N3)CC1 [compound 35]", "CC50 at 72 h", "µg/mL", 6.56],
  ["Cc1occc1C(=O)Nc1ccc(/C=C/C(=O)N2CCC=C(c3ccccc3)CC2)cn1 [compound 8]", "CC50 at 72 h", "µg/mL", 5.64]
]}

Enquiry: Any idea what its CC50 at 72 h is? The compound is Cc1cc(C(=O)Nc2ccc(/C=C/C(=O)N3CCC=C(c4ccccc4)CC3)cn2)no1 [compound 16]
Return: 7.89

Enquiry: Another compound: COc1ccc(F)cc1C1=CCCN(C(=O)/C=C/c2cnc3c(c2)COCC(=O)N3)CC1 [compound 32]
Return: 10.1

Enquiry: Entry Cn1nccc1C(=O)Nc1ccc(/C=C/C(=O)N2CCC=C(c3ccccc3)CC2)cn1 [compound 10] please
Return: 5.44

Enquiry: Try this compound too: Nc1ccc(/C=C/C(=O)N2CCC=C(c3ccccc3)CC2)cn1 [compound 23]
Return: 5.3

Enquiry: Then O=C(/C=C/c1ccc(NC(=O)C(F)(F)F)nc1)N1CCC=C(c2ccccc2)CC1 [compound 22] ?
Return: 8.01

Enquiry: Follow-up entry: O=C(Nc1ccc(/C=C/C(=O)N2CCC=C(c3ccccc3)CC2)cn1)C1CCCO1 (stereo not drawn) [compound 30]
Return: 11

Enquiry: Also, O=C(/C=C/c1ccc(Nc2ccccc2)nc1)N1CCC=C(c2ccccc2)CC1 [compound 14] please.
Return: 6.27

Enquiry: Try this compound too: CC(C)(C)C(=O)Nc1ccc(/C=C/C(=O)N2CCC=C(c3ccccc3)CC2)cn1 [compound 25]
Return: 6.32

Enquiry: Please answer likewise for CC(C)C(=O)Nc1ccc(/C=C/C(=O)N2CCC=C(c3ccccc3)CC2)cn1 [compound 19]
Return: 8.52
